Origin of values: patent US20190177431A1

# tested.system: T1, human TF on the cell surface of tumor cells (human, UniProt P13726 33-295)
# T1 construct: whole, on cells; Endogenous TF on TF-positive human tumor cell lines; also called cell surface TF
# assay.method.text: flow cytometry on MDA-MB-231 cells, antibody at 1 µg/mL
# Description: The cells were washed with PBS twice to remove the unbound primary antibody, and the target cells were incubated with 200 μL PE-labeled secondary antibody (2 μg/mL) at 4° C. for 30 min. The cells were washed with PBS twice to remove the unbound secondary antibody, and finally the cells were re-suspended in 400 μL PBS.
Measured MFI accompanies every entry in the list below.
Answer with the value's number alone.

TF-mAb-Ch (antibody, V domains shown, Variable regions of TF-mAb-SC1 cloned into vectors with human IgG1 heavy chain constant region and human kappa constant region; also called human-mouse chimeric antibody; chimeric antibody TF-mAb-Ch) VH: QVQLQQPGAELVRPGASVKLSCKASGYSFISYWMNWVKQRPGQGLEWIGMIYPADSETRLNQKFKDKATLTVDKSSSTAYMQLSSPTSEDSAVYYCAREDYGSSDYWGQGTTLTVSS VL: EILLTQSPAIIAASPGEKVTITCSASSSVSYMNWYLQKPGSSPKIWIYGISNLASGVPARFSGSGSGTSFSFTINSMETEDVATYYCQQKSSFPWTFGGGTKLEIK    3370
TF-mAb-H33 (antibody, V domains shown, Humanized) VH: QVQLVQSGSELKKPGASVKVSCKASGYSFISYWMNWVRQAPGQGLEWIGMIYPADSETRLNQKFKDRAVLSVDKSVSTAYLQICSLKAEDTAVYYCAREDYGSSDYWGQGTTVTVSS VL: EIVLTQSPATLSLSPGERATLSCSASSSVSYMNWYQQKPGQAPRIWIYGISNLASGIPARFSGSGSGTDFTLTISSLEPEDFAVYYCQQKSSFPWTFGGGTKVEIK    2420
TF-mAb-H32 (antibody, V domains shown, Humanized) VH: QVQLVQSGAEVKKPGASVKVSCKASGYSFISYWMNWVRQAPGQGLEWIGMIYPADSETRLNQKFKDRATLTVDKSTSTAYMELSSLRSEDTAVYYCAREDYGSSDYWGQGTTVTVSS VL: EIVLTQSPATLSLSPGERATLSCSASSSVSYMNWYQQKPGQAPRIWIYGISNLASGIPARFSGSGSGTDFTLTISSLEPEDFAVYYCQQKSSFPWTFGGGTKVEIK    2400

Task item: Tell me the measured MFI of TF-mAb-H37 (antibody, V domains shown, Humanized) VH: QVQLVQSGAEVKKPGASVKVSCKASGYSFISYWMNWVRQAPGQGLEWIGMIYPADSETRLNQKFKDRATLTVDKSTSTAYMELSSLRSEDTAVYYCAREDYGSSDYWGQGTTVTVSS VL: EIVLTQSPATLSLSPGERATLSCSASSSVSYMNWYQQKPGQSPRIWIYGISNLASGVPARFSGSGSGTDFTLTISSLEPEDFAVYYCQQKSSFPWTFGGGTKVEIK , please.
Reply: 2460

Task item: Okay, and TF-mAb-H45 (antibody, V domains shown, Humanized) VH: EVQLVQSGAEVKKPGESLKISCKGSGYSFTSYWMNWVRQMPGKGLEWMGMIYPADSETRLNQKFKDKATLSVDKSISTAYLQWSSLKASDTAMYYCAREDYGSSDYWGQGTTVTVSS VL: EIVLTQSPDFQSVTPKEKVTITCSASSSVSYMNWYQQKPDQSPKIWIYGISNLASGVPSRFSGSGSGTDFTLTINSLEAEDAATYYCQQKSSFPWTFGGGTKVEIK ?
Reply: 3100
